target_or_test_system: Muscarinic acetylcholine receptor M4 (Homo sapiens, UniProt P08173)
Sequence (P08173 whole entry): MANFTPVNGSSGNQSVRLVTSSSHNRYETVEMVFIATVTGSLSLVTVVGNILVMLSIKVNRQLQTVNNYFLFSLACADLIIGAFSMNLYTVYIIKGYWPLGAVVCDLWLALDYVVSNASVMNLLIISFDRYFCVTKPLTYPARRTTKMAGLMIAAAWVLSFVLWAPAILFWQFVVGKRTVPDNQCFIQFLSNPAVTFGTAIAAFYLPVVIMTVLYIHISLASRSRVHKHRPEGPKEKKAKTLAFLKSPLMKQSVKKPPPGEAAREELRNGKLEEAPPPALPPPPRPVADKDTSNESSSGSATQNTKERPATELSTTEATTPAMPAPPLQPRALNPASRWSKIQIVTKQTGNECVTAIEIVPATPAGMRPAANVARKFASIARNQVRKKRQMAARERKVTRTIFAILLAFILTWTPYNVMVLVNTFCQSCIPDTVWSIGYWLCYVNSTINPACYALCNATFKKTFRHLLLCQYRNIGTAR
experimental_details: ChEBML_1696020
Text: Positive allosteric modulation of human M4 receptor expressed in CHO cells co-expressing Gqi5 assessed as increase in acetylcholine-induced calcium mobilization
outcome_measure: EC50 (nM)
Numeric only. Scale: nM

So what does the record say about EC50 for N#Cc1cnc2ccc(F)cc2c1N1CCC(C(=O)NCc2ccccc2)CC1 ?
897
